System: Pseudomonas aeruginosa
Assay details: Antimicrobial activity against Pseudomonas aeruginosa isolate 821 by broth microdilution method
Assay type: functional
Value type: MIC (µg/mL)
Only the number, expressed in µg/mL, is required.

Worked cases, answers included:
Please give the measured MIC for this molecule: C[C@@H](O)[C@H]1C(=O)N2C(C(=O)O)=C(S[C@@H]3CN[C@H](CNS(N)(=O)=O)C3)[C@H](C)[C@H]12 32

Please give the measured MIC for this molecule: NC[C@H]1O[C@H](O[C@H]2[C@H](O)[C@@H](O[C@H]3O[C@H](CO)[C@@H](O)[C@H](N)[C@H]3O)[C@H](N)C[C@@H]2N)[C@H](N)C[C@@H]1O 3

More entries:
Please give the measured MIC for this molecule: CC(C)(O/N=C(\C(=O)N[C@@H]1C(=O)N2C(C(=O)[O-])=C(C[n+]3ccccc3)CS[C@H]12)c1csc(N)n1)C(=O)O 64
